# Tested on: T1, hIL-4Rα on cells (human, UniProt P24394 26-825)
# T1 sequence: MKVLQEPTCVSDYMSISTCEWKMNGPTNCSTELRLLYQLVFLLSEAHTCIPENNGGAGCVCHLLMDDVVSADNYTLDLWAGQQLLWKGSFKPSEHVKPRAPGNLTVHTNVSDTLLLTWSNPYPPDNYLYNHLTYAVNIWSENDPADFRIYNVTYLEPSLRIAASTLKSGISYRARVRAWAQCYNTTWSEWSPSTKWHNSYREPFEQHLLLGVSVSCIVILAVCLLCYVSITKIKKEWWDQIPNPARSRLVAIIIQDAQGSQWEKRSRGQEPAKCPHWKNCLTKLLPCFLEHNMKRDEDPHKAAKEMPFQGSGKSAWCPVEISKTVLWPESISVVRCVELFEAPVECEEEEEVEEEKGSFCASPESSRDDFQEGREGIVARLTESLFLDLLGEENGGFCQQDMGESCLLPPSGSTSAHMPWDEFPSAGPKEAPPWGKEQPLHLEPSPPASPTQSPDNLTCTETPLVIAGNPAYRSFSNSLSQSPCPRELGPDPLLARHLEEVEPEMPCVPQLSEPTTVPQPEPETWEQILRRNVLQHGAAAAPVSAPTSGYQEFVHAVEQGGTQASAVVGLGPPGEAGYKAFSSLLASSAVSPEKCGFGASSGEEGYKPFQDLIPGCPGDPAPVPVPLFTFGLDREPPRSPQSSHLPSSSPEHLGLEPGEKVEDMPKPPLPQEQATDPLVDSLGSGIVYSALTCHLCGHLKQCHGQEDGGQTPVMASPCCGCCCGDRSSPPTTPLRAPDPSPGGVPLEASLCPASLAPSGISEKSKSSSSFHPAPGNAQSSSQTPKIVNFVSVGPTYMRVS
# Measurement protocol: FACS on HEK293 cells, competitor biotin-hIL-4;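 note: HEK293 cells stably co-expressing hIL-13Rα and hIL-4Rα, stained for 1 h at 4 °C, read-out as mean fluorescence intensity by flow cytometry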
Give measured Relative Blockade of IL-4 Binding IC50 for each item. Keep answers brief.

- Binder: "Construct 26 (mAb434) (antibody, IgG4, V domains shown, VH/VL only) VH: EVQLVESGGGLEQPGGSLRLSCAGSGFTFRDFAMTWVRQAPGKGLEWVSSISGGGGSTYYADSVKGRFTISRDNSKNTLYLQMNSLRAEDTAVYYCAKDRLSIAVRPRYYGLDVWGQGTTVTVSS VL: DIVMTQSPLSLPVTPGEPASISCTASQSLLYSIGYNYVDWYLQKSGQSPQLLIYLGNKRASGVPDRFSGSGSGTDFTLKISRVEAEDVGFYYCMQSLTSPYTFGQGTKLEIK"
  Quantity kind: "Relative Blockade of IL-4 Binding IC50"
  Result: "0.763 relative to dupilumab"
- Binder: "Construct 27 (mAb435) (antibody, IgG4, V domains shown, VH/VL only) VH: EVQLVESGGGLEQPGGSLRLSCAGSGFTFTDFAMTWVRQAPGKGLEWVSSISGSGGNKYYADSVKGRFTISRDNSKNTLYLQMNSLRAEDTAVYYCAKDRLSVTVRPRYYGLDVWGQGTTVTVSS VL: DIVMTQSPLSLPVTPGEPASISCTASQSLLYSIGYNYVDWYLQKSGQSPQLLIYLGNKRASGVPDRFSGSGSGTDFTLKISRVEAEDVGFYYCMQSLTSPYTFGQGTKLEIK"
  Quantity kind: "Relative Blockade of IL-4 Binding IC50"
  Result: "0.99 relative to dupilumab"
- Binder: "Construct 34 (mAb459) (antibody, IgG4, V domains shown, VH/VL only) VH: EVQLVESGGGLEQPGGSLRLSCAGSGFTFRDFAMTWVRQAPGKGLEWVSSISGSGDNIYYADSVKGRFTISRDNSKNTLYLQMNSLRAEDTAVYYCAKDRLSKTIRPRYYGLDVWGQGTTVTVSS VL: DIVMTQSPLSLPVTPGEPASISCRSSQGLLYSIGYNYVDWYLQKSGQSPQLLIYLGNKRASGVPDRFSGSGSGTDFTLKISRVEAEDVGFYYCMQALDTPYTFGQGTKLEIK"
  Quantity kind: "Relative Blockade of IL-4 Binding IC50"
  Result: "1.23 relative to dupilumab"
- Binder: "Construct 43 (mAb482) (antibody, IgG4, V domains shown, VH/VL only) VH: EVQLVESGGGLEQPGGSLRLSCAGSGFTFRDFAMTWVRQAPGKGLEWVSSISGGGGNTYYADSVKGRFTISRDNSKNTLYLQMNSLRAEDTAVYYCAKDRLSIAVRPRYYGLDVWGQGTTVTVSS VL: DIVMTQSPLSLPVTPGEPASISCTSSQSLLYSIGYNYVDWYLQKSGQSPQLLIYLGSKRASGVPDRFSGSGSGTDFTLKISRVEAEDVGFYYCMQSLTSPYTFGQGTKLEIK"
  Quantity kind: "Relative Blockade of IL-4 Binding IC50"
  Result: "1.02 relative to dupilumab"
- Binder: "Construct 6 (mAb415) (antibody, IgG4, V domains shown, VH/VL only) VH: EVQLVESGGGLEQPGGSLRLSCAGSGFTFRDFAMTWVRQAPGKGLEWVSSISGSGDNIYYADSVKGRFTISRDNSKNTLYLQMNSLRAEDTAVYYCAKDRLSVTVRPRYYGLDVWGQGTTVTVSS VL: DIVMTQSPLSLPVTPGEPASISCRSSQGLLYSIGYNYVDWYLQKSGQSPQLLIYLGNKRASGVPDRFSGSGSGTDFTLKISRVEAEDVGFYYCMQSLQTPYTFGQGTKLEIK"
  Quantity kind: "Relative Blockade of IL-4 Binding IC50"
  Result: "1.16 relative to dupilumab"

Parameters: items (list). Returns: Relative Blockade of IL-4 Binding IC50 for each item.
1. Construct 2 (mAb411) (antibody, IgG4, V domains shown, VH/VL only) VH: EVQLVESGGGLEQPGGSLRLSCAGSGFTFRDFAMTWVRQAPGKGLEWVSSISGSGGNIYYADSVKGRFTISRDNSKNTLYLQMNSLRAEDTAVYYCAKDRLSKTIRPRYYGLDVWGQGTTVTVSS VL: DIVMTQSPLSLPVTPGEPASISCTASQSLLYSIGYNYVDWYLQKSGQSPQLLIYLGSKRASGVPDRFSGSGSGTDFTLKISRVEAEDVGFYYCMQALTTPYTFGQGTKLEIK
2. Construct 11 (mAb420) (antibody, IgG4, V domains shown, VH/VL only) VH: EVQLVESGGGLEQPGGSLRLSCAGSGFTFRDFAMTWVRQAPGKGLEWVSSISGDGSNTYYADSVKGRFTISRDNSKNTLYLQMNSLRAEDTAVYYCAKDRLSKTIRPRYYGLDVWGQGTTVTVSS VL: DIVMTQSPLSLPVTPGEPASISCRSSQSVLYSIGYNYVDWYLQKSGQSPQLLIYLGNKRASGVPDRFSGSGSGTDFTLKISRVEAEDVGFYYCMQSLQTPYTFGQGTKLEIK
3. Construct 46 (mAb501) (antibody, IgG4, V domains shown, VH/VL only) VH: EVQLVESGGGLEQPGGSLRLSCAGSGFTFRDSAMTWVRQAPGKGLEWVSSISGSGDGTYYADSVKGRFTISRDNSKNTLYLQMNSLRAEDTAVYYCAKDRLSIYIRPRYYGLDVWGQGTTVTVSS VL: DIVMTQSPLSLPVTPGEPASISCTSSQSLLYSIGYNYVDWYLQKSGQSPQLLIYLGNKRASGVPDRFSGSGSGTDFTLKISRVEAEDVGFYYCMQALQTPYTFGQGTKLEIK
4. Construct 23 (mAb431) (antibody, V domains shown, VH/VL only) VH: EVQLVESGGGLEQPGGSLRLSCAGSGFTFRDFAMTWVRQAPGKGLEWVSSISGGGGSTYYADSVKGRFTISRDNSKNTLYLQMNSLRAEDTAVYYCAKDRLSVTVRPRYYGLDVWGQGTTVTVSS VL: DIVMTQSPLSLPVTPGEPASISCRSSQSVLYSIGKNYVDWYLQKSGQSPQLLIYLGSQRATGVPDRFSGSGSGTDFTLKISRVEAEDVGFYYCMQSLTSPYTFGQGTKLEIK

1. 0.799 relative to dupilumab
2. 0.977 relative to dupilumab
3. 1.22 relative to dupilumab
4. 1.07 relative to dupilumab

Parameters: items (list). Returns: Relative Blockade of IL-4 Binding IC50 for each item.
1. Construct 33 (mAb450) (antibody, IgG4, V domains shown, VH/VL only) VH: EVQLVESGGGLEQPGGSLRLSCAGSGFTFRDFAMTWVRQAPGKGLEWVSSISGSGGNIYYADSVKGRFTISRDNSKNTLYLQMNSLRAEDTAVYYCAKDRVSITIRPRYYGLDVWGQGTTVTVSS VL: DIVMTQSPLSLPVTPGEPASISCTASQSLLYSIGYNYVDWYLQKSGQSPQLLIYLGSKRASGVPDRFSGSGSGTDFTLKISRVEAEDVGFYYCMQALGSPYTFGQGTKLEIK
2. Construct 4 (mAb413) (antibody, IgG4, V domains shown, VH/VL only) VH: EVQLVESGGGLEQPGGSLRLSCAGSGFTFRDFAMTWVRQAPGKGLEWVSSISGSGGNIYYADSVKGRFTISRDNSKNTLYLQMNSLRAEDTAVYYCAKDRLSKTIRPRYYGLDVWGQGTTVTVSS VL: DIVMTQSPLSLPVTPGEPASISCTASQSLLYSIGYNYVDWYLQKSGQSPQLLIYLGNNRATGVPDRFSGSGSGTDFTLKISRVEAEDVGFYYCMQALTTPYTFGQGTKLEIK

1.01 relative to dupilumab
1.01 relative to dupilumab

Data origin, for the record: patent US20260193366A1
